B1: LINE1-mini (parent)
chain: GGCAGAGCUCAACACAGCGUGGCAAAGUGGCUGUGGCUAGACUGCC

Variants of: B1
Experiment: self-cleavage, relative activity (ratio to wild type); higher = more cleavage; in vitro, sequencing; the parent is a self-cleaving ribozyme
The label depends only on self-cleavage: satisfied if it is at least 0.07, not satisfied if it is smaller.

Worked cases, answers included:
• A12U G17U = satisfied
• C10U G35C = not satisfied
• C37G U38A = not satisfied
• G2U C45A = satisfied
• C8A U34C = satisfied

Given the entry A11C A24C , answer whether its self-cleavage meets or surpasses 0.07.
not satisfied
